// cross-study collection: IC50 for Cyclin-dependent kinase 9 (Homo sapiens, UniProt P50750)
Measurement Kind: IC50 (nM)

Input Smiles: COC[C@@H](C)N[C@H]1CC[C@H](Nc2cc(-c3cccc(NCC4(C#N)CCOCC4)n3)c(Cl)cn2)CC1
Measured Target: Cyclin-dependent kinase 9 (Homo sapiens, UniProt P50750)
Sequence (P50750 whole entry): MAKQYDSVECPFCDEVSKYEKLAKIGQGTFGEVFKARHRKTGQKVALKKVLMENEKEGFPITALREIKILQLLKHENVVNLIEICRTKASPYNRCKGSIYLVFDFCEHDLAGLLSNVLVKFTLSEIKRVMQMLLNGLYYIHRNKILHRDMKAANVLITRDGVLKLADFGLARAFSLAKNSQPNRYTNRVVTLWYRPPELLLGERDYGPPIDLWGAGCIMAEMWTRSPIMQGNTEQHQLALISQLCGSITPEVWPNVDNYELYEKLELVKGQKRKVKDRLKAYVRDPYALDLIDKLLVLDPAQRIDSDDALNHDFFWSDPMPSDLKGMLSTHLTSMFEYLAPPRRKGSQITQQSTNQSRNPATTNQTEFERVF
Measurement Kind: IC50
Unit Text: nM
Reading: 4.1

Input Smiles: CC(C)N1CCN(C(=O)c2ccnc(Nc3cc(-c4ccc5nnn(C(C)C)c5c4)ccn3)c2)CC1
Measured Target: Cyclin-dependent kinase 9 (Homo sapiens, UniProt P50750)
Measurement Kind: IC50
Unit Text: nM
Reading: 3.3

A. CC#CC(=O)N1CC(N2CCC(c3cc(C)c4c(c3)Nc3ncnc(N5CCS(=O)(=O)CC5)c3[C@@H](C)O4)CC2)C1
B. CN1CC(F)(F)CCN(C)[C@H]2CC[C@@H](C2)Nc2ncc(C(F)(F)F)c(n2)-c2c[nH]c3c(P(C)(C)=O)c(ccc23)C1=O
C. Cn1cc(-c2c(Cl)cnc3[nH]c(C4CCNCC4)cc23)cn1
Place the items in sequence of falling IC50. # respond with the labels, arranged in the requested order
A, B, C
(A: 933 nM, B: 258 nM, C: 5.9 nM)
